This collection of values is drawn from ChEMBL document CHEMBL1806385.

- Protocol text: Intrinsic clearance in human liver microsomes
- Type: ADME, Microsome
Metric name: microsomal CLint

[[record]]
compound_smiles = "O=C(N[C@@H]1CCC[C@H](O)C1)c1noc(-c2ccc(C(F)(F)F)cc2)c1Cl"
metric_name = "microsomal CLint"
result = "< 12 µL/min/mg"


Notebook: "O=C(N[C@@H]1CCC[C@H](O)C1)c1noc(-c2ccc(C(F)(F)F)cc2)c1CO" , microsomal CLint read as < 12 µL/min/mg

* * *

- Protocol text: Plasma protein binding in Wistar rat
- Type: ADME, cell-free
- Condition info: read-out: PPB (converted)
Metric name: fraction unbound

[[record]]
compound_smiles = "O=C(N[C@@H]1CCC[C@H](O)C1)c1noc(-c2ccc(C(F)(F)F)cc2)c1Cl"
metric_name = "fraction unbound"
result = 0.007


Now, please, on to the next compound.
Record "O=C(N[C@@H]1CCC[C@H](O)C1)c1noc(-c2ccc(C(F)(F)F)cc2)c1CO" . Reported fraction unbound: 0.091
